Experiment: In vivo pharmacokinetic experiments (compound clearance in rats)
Settings: rat; male rats, IV administration, plasma clearance; read-out: PK (CLp, rat)
Description: Example 6: In Vivo Pharmacokinetic Experiments (Compound Clearance in Rats) In vivo clearance (CLp) of certain compounds was measured in order to evaluate whether these compounds were likely to be good candidates for development. […] Plasma concentration of compound was determined by mass spectrometer, and pharmacokinetic analysis was performed using non-compartmental method using Phoenix WinNonlin. […]
measurement label: clearance

compound=O=S(=O)(Nc1ncns1)c1ccc2c(c1)OCC[C@@H]2N1CC[C@@](O)(C(F)(F)F)C[C@H]1c1ccc(F)cc1 result="> 60 mL/min/kg"
compound="N#C[C@H]1CCN([C@H]2CCOc3cc(S(=O)(=O)Nc4ncns4)ccc32)C(c2ccc(F)cc2)C1 (stereo partly drawn)" result="> 60 mL/min/kg"

Here is another compound to look at.
Briefly, clearance measured for O=S(=O)(Nc1ccncn1)c1cc2c(cc1F)[C@@H](N1CC[C@@H](C(F)(F)F)C[C@H]1c1ccccn1)CCO2 : < 30 mL/min/kg
